Target: UniProt P14842
Assay: in-vitro affinity to 5-HT2A receptors, displacement of [3H]ketanserine (Example A1)
Assay type: binding
Settings: read-out: HT2A IC50
Property: IC50; scope: individual molecules
Give the value, in units of nM, as a plain number.

query: Can you share its IC50? I mean this molecule: O=C(c1cnn(-c2ccc(-c3ccccc3)cc2)c1-c1ccccc1F)N1CCOCC1
result: 360

query: Quick check: IC50 of Fc1ccccc1-c1c(CN2CCNCC2)cnn1-c1ccc(C(F)(F)F)cc1 ?
result: 43

query: // returns reported IC50 for input CN1CCN(Cc2cnn(-c3ccc(-c4cc(F)ccc4F)cc3)c2-c2ccccc2)CC1
result: 110

query: Please look up its IC50: CC(C)N1CCN(Cc2cnn(-c3ccc(-c4ccc(F)cc4)cc3)c2-c2cccc(Cl)c2)CC1
result: 41

query: For the molecule CN1CCN(Cc2cnn(-c3ccc(-c4ccccc4)cc3)c2-c2cccnc2)CC1 , what IC50 is on record?
result: 290

query: Recorded IC50 for Cc1cc(CNCc2cnn(-c3ccc(-c4ccccc4)cc3)c2-c2ccccc2)no1 , please?
result: 240

----------
Target: 5-HT2A receptors (Rattus norvegicus)
Sequence (P14842 whole entry): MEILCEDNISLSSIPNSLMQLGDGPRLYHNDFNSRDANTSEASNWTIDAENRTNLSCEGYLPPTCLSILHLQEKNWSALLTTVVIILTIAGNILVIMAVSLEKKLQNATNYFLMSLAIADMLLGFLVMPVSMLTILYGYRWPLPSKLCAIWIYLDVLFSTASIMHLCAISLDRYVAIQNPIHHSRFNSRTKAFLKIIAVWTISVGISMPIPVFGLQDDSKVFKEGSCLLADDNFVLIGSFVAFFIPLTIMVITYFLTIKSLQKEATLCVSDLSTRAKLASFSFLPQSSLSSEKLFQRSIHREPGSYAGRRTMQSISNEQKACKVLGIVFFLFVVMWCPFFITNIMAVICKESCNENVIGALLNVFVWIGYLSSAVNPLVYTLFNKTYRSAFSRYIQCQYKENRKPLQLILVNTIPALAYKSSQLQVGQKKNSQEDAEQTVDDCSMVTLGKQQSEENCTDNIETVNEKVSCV
Test: in-vitro affinity to 5-HT2A receptors, displacement of [3H]ketanserine (Example A1)
Format: binding
Conditions: read-out: HT2A IC50
The compounds listed here are annotated with their pIC50.
Interpret pIC50 as the negative base-10 log of the concentration measured in mol/L.

The examples below pair each entry with its known result.
compound	measuredTarget	pIC50
O=C1CCCN1CCCNCc1cnn(-c2ccc(-c3ccccc3)cc2)c1-c1ccccc1F [Example 961]	5-HT2A receptors (Rattus norvegicus)	7.19
CN1CCN(Cc2cnn(-c3ccc(-c4ccc(F)cc4)cc3)c2-c2ccccc2Cl)CC1 [Example 965]	5-HT2A receptors (Rattus norvegicus)	7.14
OCc1cnn(-c2ccc(-c3ccc(F)cc3)cc2)c1-c1ccc(Cl)cc1 [Example 933]	5-HT2A receptors (Rattus norvegicus)	7.51
Cc1ccc(-c2ccc(-n3ncc(CN4CCN(C)CC4)c3-c3ccccc3F)cc2)cc1 [Example 916]	5-HT2A receptors (Rattus norvegicus)	7.66
CC(C)N1CCN(Cc2cnn(-c3ccc(-c4ccc(F)cc4)cc3)c2-c2ccccc2Cl)CC1 [Example 997]	5-HT2A receptors (Rattus norvegicus)	6.80
CN1CCCN(Cc2cnn(-c3ccc(-c4ccccc4)cc3)c2-c2ccccc2F)CC1 [Example 893]	5-HT2A receptors (Rattus norvegicus)	8.19
Cc1cnc(NCc2cnn(-c3ccc(-c4ccccc4)cc3)c2-c2ccccc2F)s1 [Example 1046]	5-HT2A receptors (Rattus norvegicus)	6.43
O=C(NCCO)C1CCN(Cc2cnn(-c3ccc(-c4ccccc4)cc3)c2-c2ccccc2F)CC1 [Example 1030]	5-HT2A receptors (Rattus norvegicus)	6.57
COC(=O)CCNCc1cnn(-c2ccc(-c3ccccc3)cc2)c1-c1ccccc1F [Example 1014]	5-HT2A receptors (Rattus norvegicus)	6.68
CC(=O)NC1CCN(Cc2cnn(-c3ccc(-c4ccccc4)cc3)c2-c2ccccc2F)C1 (centres unmarked) [Example 929]	5-HT2A receptors (Rattus norvegicus)	7.54

query: Please state recorded pIC50 (tested on 5-HT2A receptors (Rattus norvegicus)) of CCc1ccc(-c2ccc(-n3ncc(CN4CCN(C)CC4)c3-c3ccccc3F)cc2)cc1 [Example 956]
result: 7.24

query: Checklist item: pIC50 tested on 5-HT2A receptors (Rattus norvegicus), entry CCN(Cc1ccccc1)Cc1cnn(-c2ccc(-c3ccccc3)cc2)c1-c1ccccc1F [Example 1039] , value?
result: 6.49

query: 5-HT2A receptors (Rattus norvegicus) / pIC50 / OCCc1cnn(-c2ccc(-c3ccccc3)cc2)c1-c1ccccc1F [Example 1059] : value?
result: 6.33

query: 5-HT2A receptors (Rattus norvegicus) / pIC50 / CN(C)Cc1cnn(-c2ccc(-c3ccccc3)cc2)c1-c1ccccc1F [Example 914] : value?
result: 7.68

query: Param readout = pIC50; param system = 5-HT2A receptors (Rattus norvegicus); param query = Fc1ccc(CCN2CCN(Cc3cnn(-c4ccccn4)c3-c3ccccc3F)CC2)c(F)c1 [Example 919] ; response: value
result: 7.64
